- system: T1, Acro COVID S1 (S1N-C82E8) (SARS-CoV-2, UniProt P0DTC2 16-685)
- T1 construct: domain: S1
- assay_comment: phage ELISA
measurement_name: ELISA fold over background

Some solved entries appear below for comparison.
[[record]]
binder = "1-47 (antibody, V domains shown, also called variant 1-47) VH: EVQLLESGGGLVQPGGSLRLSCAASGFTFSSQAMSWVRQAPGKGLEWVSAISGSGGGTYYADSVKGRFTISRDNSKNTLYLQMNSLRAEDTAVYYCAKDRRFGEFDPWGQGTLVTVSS VL: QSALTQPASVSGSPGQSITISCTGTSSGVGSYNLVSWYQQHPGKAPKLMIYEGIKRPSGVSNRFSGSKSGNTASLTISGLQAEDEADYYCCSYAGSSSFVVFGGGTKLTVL"
measurement_name = "ELISA fold over background"
observed_measurement = "8.1 fold over background"

[[record]]
binder = "1-31 (antibody, V domains shown, also called variant 1-31) VH: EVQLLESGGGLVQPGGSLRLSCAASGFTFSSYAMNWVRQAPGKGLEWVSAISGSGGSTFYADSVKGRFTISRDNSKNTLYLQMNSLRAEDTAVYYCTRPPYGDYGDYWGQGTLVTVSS VL: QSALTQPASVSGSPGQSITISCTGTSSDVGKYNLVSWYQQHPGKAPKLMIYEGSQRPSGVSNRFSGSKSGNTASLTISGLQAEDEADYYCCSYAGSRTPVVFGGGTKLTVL"
measurement_name = "ELISA fold over background"
observed_measurement = "30.4 fold over background"

[[record]]
binder = "1-5 (antibody, V domains shown, also called variant 1-5) VH: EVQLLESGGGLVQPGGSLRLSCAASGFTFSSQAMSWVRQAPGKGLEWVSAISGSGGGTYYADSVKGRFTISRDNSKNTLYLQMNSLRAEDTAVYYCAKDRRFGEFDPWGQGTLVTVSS VL: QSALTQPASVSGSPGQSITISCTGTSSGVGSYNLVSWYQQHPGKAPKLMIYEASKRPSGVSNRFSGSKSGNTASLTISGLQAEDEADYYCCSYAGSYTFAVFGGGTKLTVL"
measurement_name = "ELISA fold over background"
observed_measurement = "1.5 fold over background"


Lab note: each binder below needs its ELISA fold over background filled in.
1. 1-2 (antibody, V domains shown, also called variant 1-2) VH: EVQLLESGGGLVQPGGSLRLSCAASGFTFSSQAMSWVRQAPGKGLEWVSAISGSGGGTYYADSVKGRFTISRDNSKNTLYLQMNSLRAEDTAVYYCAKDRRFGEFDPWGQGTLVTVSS VL: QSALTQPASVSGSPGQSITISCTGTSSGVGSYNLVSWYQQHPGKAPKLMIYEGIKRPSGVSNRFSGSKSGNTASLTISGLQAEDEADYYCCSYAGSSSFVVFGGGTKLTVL
2. 1-7 (antibody, V domains shown, also called variant 1-7) VH: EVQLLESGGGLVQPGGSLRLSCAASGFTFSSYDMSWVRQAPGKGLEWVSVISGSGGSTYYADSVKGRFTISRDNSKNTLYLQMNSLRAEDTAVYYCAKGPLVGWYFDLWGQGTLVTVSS VL: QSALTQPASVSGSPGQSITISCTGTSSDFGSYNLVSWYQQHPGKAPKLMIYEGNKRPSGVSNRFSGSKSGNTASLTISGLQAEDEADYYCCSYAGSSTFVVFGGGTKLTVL
3. 1-28 (antibody, V domains shown, also called variant 1-28) VH: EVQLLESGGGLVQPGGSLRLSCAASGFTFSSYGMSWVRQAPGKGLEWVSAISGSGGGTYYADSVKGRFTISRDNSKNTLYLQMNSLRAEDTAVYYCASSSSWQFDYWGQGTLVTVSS VL: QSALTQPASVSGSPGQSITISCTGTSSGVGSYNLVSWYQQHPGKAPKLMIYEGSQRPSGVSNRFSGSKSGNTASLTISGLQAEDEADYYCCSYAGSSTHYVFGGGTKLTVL
4. 1-32 (antibody, V domains shown, also called variant 1-32) VH: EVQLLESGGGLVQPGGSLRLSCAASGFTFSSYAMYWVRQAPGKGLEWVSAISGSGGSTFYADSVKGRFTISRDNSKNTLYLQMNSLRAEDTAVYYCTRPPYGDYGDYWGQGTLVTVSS VL: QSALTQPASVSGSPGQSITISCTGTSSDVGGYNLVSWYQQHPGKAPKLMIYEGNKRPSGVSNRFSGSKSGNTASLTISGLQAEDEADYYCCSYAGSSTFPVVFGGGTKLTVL
5. 1-10 (antibody, V domains shown, also called variant 1-10) VH: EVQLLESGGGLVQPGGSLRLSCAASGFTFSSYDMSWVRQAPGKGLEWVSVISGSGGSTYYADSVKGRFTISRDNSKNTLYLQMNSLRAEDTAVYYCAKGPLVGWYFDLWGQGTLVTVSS VL: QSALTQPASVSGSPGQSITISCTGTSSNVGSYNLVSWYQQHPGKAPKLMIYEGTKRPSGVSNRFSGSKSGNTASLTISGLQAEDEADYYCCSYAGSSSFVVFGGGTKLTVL
6. 1-27 (antibody, V domains shown, also called variant 1-27) VH: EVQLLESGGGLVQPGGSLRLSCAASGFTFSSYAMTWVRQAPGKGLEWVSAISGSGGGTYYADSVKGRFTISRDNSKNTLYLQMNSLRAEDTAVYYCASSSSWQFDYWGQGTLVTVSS VL: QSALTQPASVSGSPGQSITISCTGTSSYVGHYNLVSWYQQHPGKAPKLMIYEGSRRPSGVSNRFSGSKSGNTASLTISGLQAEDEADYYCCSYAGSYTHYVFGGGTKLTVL

Result:
1. 1.8 fold over background
2. 6.8 fold over background
3. 1 fold over background
4. 11.5 fold over background
5. 17.4 fold over background
6. 1.5 fold over background

Task: Look up ELISA fold over background for this binder: 1-3 (antibody, V domains shown, also called variant 1-3) VH: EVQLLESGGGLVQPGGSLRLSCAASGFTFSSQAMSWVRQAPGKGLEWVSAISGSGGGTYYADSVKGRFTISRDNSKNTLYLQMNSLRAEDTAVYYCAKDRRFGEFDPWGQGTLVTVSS VL: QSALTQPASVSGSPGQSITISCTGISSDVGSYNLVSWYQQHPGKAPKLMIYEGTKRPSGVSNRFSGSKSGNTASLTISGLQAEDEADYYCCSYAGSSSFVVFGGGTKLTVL
Result: 1.6 fold over background

Origin of measurements: patent US20210395344A1
